- tested.target: Glucocorticoid receptor (Homo sapiens) (UniProt P04150)
- Sequence (P04150 whole entry, looked up): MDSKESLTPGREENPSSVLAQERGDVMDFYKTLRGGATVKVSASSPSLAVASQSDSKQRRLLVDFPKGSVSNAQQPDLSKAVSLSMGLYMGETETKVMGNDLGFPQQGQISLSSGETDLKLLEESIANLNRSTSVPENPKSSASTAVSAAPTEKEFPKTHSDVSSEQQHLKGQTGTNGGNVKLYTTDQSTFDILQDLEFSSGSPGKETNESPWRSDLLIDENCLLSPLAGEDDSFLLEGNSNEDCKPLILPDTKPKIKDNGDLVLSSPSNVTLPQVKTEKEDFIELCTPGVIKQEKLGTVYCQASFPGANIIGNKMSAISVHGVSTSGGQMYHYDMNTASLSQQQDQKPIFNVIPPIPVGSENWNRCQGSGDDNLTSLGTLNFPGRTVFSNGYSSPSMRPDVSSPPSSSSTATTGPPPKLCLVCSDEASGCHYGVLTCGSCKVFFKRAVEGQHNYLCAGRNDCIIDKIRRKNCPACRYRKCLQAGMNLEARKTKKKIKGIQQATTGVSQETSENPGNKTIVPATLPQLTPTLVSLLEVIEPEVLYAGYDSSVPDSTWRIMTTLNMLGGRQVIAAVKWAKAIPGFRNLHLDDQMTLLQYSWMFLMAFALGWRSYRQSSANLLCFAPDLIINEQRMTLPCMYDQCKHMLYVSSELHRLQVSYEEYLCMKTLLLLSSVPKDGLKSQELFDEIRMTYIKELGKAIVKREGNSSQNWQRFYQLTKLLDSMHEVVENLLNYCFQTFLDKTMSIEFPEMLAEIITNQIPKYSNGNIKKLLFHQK
- assay.protocol: GR-GFP Redistribution (AID 450); also: potency is read from the fitted curve at half-maximal effect
- stated.conditions: U2OS GR-GFP nuclear translocation, laser cytometry, 2 h
Activity calls are given as the source filed them.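 The calls were made as follows: active = compounds whose dose series gives a full or clear partial fitted curve of increased nuclear translocation; inconclusive = weak partial curve or effect only at the top dose; inactive = no dose-dependent translocation response.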
Recorded Potency for the following compounds

Some entries whose results are on file:
[
  {
    "entry.smiles": "O=CN1C[C@H]2C[C@@H](C1)c1cccc(=O)n1C2",
    "Potency": "> 46 µM (inactive)"
  },
  {
    "entry.smiles": "C=CCn1c(O)c(C=Nc2ccc(N(CC)CC)cc2)c(=O)[nH]c1=O",
    "Potency": "> 20.6 µM (inactive)"
  },
  {
    "entry.smiles": "C=CCN1C[C@@H](C)N([C@H](c2ccc(C(=O)N(CC)CC)cc2)c2cccc(OC)c2)C[C@H]1C",
    "Potency": "> 46 µM (inactive)"
  },
  {
    "entry.smiles": "CC(C)(O)[C@H]1[C@H]2OC(=O)[C@@H]1[C@]1(O)C[C@H]3O[C@]34C(=O)O[C@H]2[C@]14C",
    "Potency": "> 46 µM (inactive)"
  }
]

Continue with the next compound.
Exercise: Value lookup for Potency; key = "CN1CCc2cc3c(cc2[C@@H]1[C@H]1OC(=O)c2c1ccc1c2OCO1)OCO3"
Solution: > 46 µM (inactive)

---

Property: max response; scope: individual molecules
- assay.protocol: qHTS assay for small molecule agonists of retinoid X receptor alpha signaling (AID 588544)
- stated.conditions: HEK293T RXRa-UAS-bla, beta-lactamase reporter, 18 h; 530 nm emission
Records with an inconclusive call do not appear.
Write it as a number; the unit % goes unstated.

[
  {
    "molecule": "[Ga]#[As]",
    "u": "%",
    "observed.measurement": -5.43
  },
  {
    "molecule": "CC(C)C1(C)N=C(c2ncccc2C(=O)O)NC1=O (stereo not given)",
    "u": "%",
    "observed.measurement": -12.1
  },
  {
    "molecule": "CNC(=S)S",
    "u": "%",
    "observed.measurement": -26.8
  },
  {
    "molecule": "[CH3][Sn]([CH3])([Cl])[Cl]",
    "u": "%",
    "observed.measurement": -7.56
  },
  {
    "molecule": "CC1(C(=O)Nc2ccc(O)c(Cl)c2Cl)CCCCC1",
    "u": "%",
    "observed.measurement": -10.8
  }
]

Exercise: Requested read-out: max response. Entry: COc1ccc(C(O)(c2cncnc2)C2CC2)cc1 (stereo not given)
Solution: -7.16

Exercise: Note, next up: "CCOP(=O)(O)C(N)=O"
Solution: -12.7

Exercise: Next record, please: COP(=O)(NC(C)=O)SC (stereo not given)
Solution: 4.58

Exercise: // same read-out, input: "CCNc1nc(NC(C)C)nc(OC)n1"
Solution: -5.81

Exercise: Likewise for "CN(C)c1nc(=O)n(C2CCCCC2)c(=O)n1C" ?
Solution: -8.9

---

- System: ICS
- assay.protocol: qHTS profiling for inhibitors of Plasmodium falciparum proliferation (AID 504749); also: nearly all actives have a fitted effect of over 60% in size
- stated.conditions: P. falciparum in erythrocytes, SYBR Green DNA, 72 h; series mostly up to 28.7 µM
Records with an inconclusive call do not appear. Active and inactive are the calls of the source. Calls follow the shape of the dose curve; as a rule, active = well fitted inhibition curve with a large enough effect; inconclusive = small, poorly fitted or top-dose-only effect; inactive = flat fitted curve, though single readings scatter.
The reply should name one outcome from active, inactive

Please review the entries below; each comes with its answer.
[
  {
    "compound": "O=C1CC2OCC=C3CN4CC[C@]56c7ccccc7N1C5C2[C@H]3C[C@H]46 (stereo not given in full)",
    "class": "inactive"
  },
  {
    "compound": "C[C@]12C=CC(=O)C=C1CC[C@@H]1C2CC[C@]2(C)OC(=O)CCC12 (stereo not given in full)",
    "class": "inactive"
  },
  {
    "compound": "C=CC[N+]1(C)CCC23c4c5ccc(O)c4O[C@H]2C(=O)CC[C@@]3(O)C1C5 (stereo not given in full)",
    "class": "inactive"
  },
  {
    "compound": "OCC(O)[C@H]1O[C@@H]2O[C@H](C(Cl)(Cl)Cl)O[C@@H]2[C@H]1O (stereo not given in full)",
    "class": "inactive"
  },
  {
    "compound": "CC1(C)S[C@@H]2[C@H](N)C(=O)N2C1C(=O)O (stereo not given in full)",
    "class": "inactive"
  }
]

Exercise: Please state the recorded outcome for this compound: COC(=O)C1C(OC(=O)c2ccccc2)CC2CCC1N2C (stereo not given)
Solution: inactive

Exercise: Try the compound CC(=O)[C@H]1CC[C@H]2C3CC[C@H]4C[C@H](O)CC[C@]4(C)C3CC[C@]12C (stereo not given in full)
Solution: inactive

Exercise: Quick one: CCCN1CCCC2Cc3nc(N)ncc3CC21 (stereo not given)
Solution: inactive

Exercise: Then CC(C)CCC(=O)OC1CCC2C3CCC4=CC(=O)CC[C@]4(C)C3CC[C@]12C (stereo not given in full) ?
Solution: active

Exercise: Another compound to check: COc1ccc2c3c1O[C@H]1[C@@H](O)C=C[C@H]4C(C2)NCCC341 (stereo not given in full)
Solution: inactive

---

- assay.protocol: qHTS profiling for inhibitors of Plasmodium falciparum proliferation (AID 504749); also: nearly all actives have a fitted effect of over 60% in size; also: potency is read from the fitted curve at half-maximal effect
- stated.conditions: P. falciparum in erythrocytes, SYBR Green DNA, 72 h; parasite line B
Inconclusive results are not listed. Calls of active or inactive are those of the source. Calls come from the whole dose curve; as a rule, active = well fitted inhibition curve with a large enough effect; inconclusive = small, poorly fitted or top-dose-only effect; inactive = flat fitted curve, though single readings scatter.
# reported Potency; entries follow

Recorded Potency, per entry:
[
  {
    "molecule": "COC(C(=O)C(O)C(C)O)C1Cc2cc3cc(OC4CC(OC5CC(O)C(OC)C(C)O5)C(OC(C)=O)C(C)O4)c(C)c(O)c3c(O)c2C(=O)C1OC1CC(OC2CC(OC3CC(C)(O)C(OC(C)=O)C(C)O3)C(O)C(C)O2)C(O)C(C)O1 (centres undefined)",
    "observed.measurement": "1.41 µM (active)"
  },
  {
    "molecule": "C[C@@H]1CC[C@H]2[C@@H](C)C(=O)O[C@@H]3OC4(C)CC[C@@H]1C32OO4 (some centres undefined)",
    "observed.measurement": "0.0071 µM (active)"
  },
  {
    "molecule": "CCCCCc1cc(O)c2c(c1)OC(C)(C)C1CC=C(C)CC21 (centres undefined)",
    "observed.measurement": "1.12 µM (active)"
  }
]

Exercise: Param item = CCC/C=C/C=C/C(=O)OC1/C(=C/C(=O)OC)CC2CC(C(C)O)OC(=O)CC(O)CC3CC(OC(C)=O)C(C)(C)C(O)(CC4C/C(=C/C(=O)OC)CC(/C=C\C(C)(C)C1(O)O2)O4)O3 (centres undefined) ; retrieve measured Potency.
Solution: 1.78 µM (active)

---

- tested.target: Ubiquitin carboxyl-terminal hydrolase 1 (Homo sapiens) (UniProt O94782)
- Sequence (O94782 whole entry, looked up): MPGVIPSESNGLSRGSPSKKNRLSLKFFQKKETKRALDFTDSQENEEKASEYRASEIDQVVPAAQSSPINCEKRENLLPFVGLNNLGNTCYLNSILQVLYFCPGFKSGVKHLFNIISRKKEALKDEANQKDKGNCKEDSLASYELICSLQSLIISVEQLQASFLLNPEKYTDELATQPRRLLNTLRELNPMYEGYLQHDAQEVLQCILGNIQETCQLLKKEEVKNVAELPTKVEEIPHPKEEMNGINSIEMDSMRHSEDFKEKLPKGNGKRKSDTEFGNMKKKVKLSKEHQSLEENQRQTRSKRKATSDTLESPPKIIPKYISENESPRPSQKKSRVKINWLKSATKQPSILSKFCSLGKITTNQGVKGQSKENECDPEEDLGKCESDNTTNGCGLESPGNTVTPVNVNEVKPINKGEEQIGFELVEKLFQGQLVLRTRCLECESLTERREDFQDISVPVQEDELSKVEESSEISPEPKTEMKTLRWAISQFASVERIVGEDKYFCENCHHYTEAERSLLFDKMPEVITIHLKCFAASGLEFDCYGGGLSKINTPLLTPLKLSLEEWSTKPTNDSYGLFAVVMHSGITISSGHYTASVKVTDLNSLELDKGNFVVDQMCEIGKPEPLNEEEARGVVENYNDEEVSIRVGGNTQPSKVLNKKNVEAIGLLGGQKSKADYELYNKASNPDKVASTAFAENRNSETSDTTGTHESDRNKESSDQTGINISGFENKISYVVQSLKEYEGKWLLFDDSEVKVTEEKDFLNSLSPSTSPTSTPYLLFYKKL
- assay.protocol: Inhibitors of USP1/UAF1: Pilot qHTS (AID 504865); also: nearly all actives have a fitted effect of over 35% in size
- stated.conditions: purified USP1/UAF1, Ub-rhodamine cleavage fluorescence; series mostly up to 114 µM
- Source text: Deubiquitinating enzymes (DUBs) are a class of enzymes that can cleave isopeptide bond formed between the C-terminal carboxylate of ubiquitin and a lysine side-chain amino group on the target protein. Among them, ubiquitin specific proteases (USPs) constitute the largest DUB family. […]
Inconclusive results are not listed. Active and inactive are the calls of the source. The call rests on the fitted dose curve; in most records, active means well fitted inhibition curve with a large enough effect; inconclusive means small, poorly fitted or top-dose-only effect; inactive means flat fitted curve, though single readings scatter.
Choose the fitting class; nothing outside active, inactive is accepted.

Before answering, review these 4 worked examples.
[
  {
    "molecule": "OCC1OC(n2cnc3cc(Cl)c(Cl)cc32)C(O)C1O (centres undefined)",
    "class": "inactive"
  },
  {
    "molecule": "CC1OC(O[C@H]2C[C@@H](O)[C@]3(CO)[C@@H]4C(CC[C@]3(O)C2)[C@@]2(O)CC[C@H](C3=CC(=O)OC3)[C@@]2(C)C[C@H]4O)C(O)C(O)C1O (some centres undefined)",
    "class": "inactive"
  },
  {
    "molecule": "CC1CC(Cl)CCC1C(=O)OC(C)(C)C (centres undefined)",
    "class": "inactive"
  },
  {
    "molecule": "CN1C[C@@H](C(=O)N[C@@]2(C)O[C@]3(O)C4CCCN4C(=O)[C@@H](Cc4ccccc4)N3C2=O)C=C2c3cccc4[nH]cc(c34)C[C@@H]21 (some centres undefined)",
    "class": "active"
  }
]

Exercise: Give the logged outcome of this assay for the following molecule: C[C@]12C=CC(=O)C=C1CC[C@@H]1C2CC[C@]2(C)OC(=O)CCC12 (some centres undefined)
Solution: inactive

Exercise: Also check CCCN1CCCC2Cc3nc(N)ncc3CC21 (centres undefined)
Solution: inactive

Exercise: Then what about the molecule "CC(C)=O" ?
Solution: inactive

Exercise: Same read-out for Cc1cccc2c3c(ccc12)C1=C(C(=O)C3=O)C(C)CO1 (centres undefined) ?
Solution: active

Exercise: Similarly, NC[C@@H]1O[C@H](OC2[C@@H](CO)O[C@@H](OC3[C@H](O)[C@H](N)C[C@H](N)[C@H]3OC3O[C@H](CO)[C@@H](O)[C@H](O)[C@@H]3N)[C@H]2O)C(N)[C@H](O)[C@@H]1O (some centres undefined) ?
Solution: inactive

Exercise: Same for CC1(C)C(C(Cl)Cl)C2(Cl)C(Cl)C(Cl)C1(Cl)C2(Cl)Cl (centres undefined)
Solution: inactive

Data provenance: PubChem BioAssay (NCATS)
